Source: the supplement of paper PMC11246515

- protocolNotes: total protein half-life in vivo (active degradation + dilution); higher = more stable protein
- runConditions: E. coli NCM3722 delta-smpB; growth: N-lim chemostat; doubling time 6 h
measureName: total protein half-life in vivo (h)
Dear colleague, please return just the value in h, with no unit written.

Guide cases for total protein half-life in vivo, answers given:
>>> numericresult("MNKVVLLCRPGFEKECAAEITDKAGQREIFGFARVKENAGYVIYECYQPDDGDKLIRELPFSSLIFARQWFVVGELLQHLPPEDRITPIVGMLQGVVEKGGELRVEVADTNESKELLKFCRKFTVPLRAALRDAGVLANYETPKRPVVHVFFIAPGCCYTGYSYSNNNSPFYMGIPRLKFPADAPSRSTLKLEEAFHVFIPADEWDERLANGMWAVDLGACPGGWTYQLVKRNMWVYSVDNGPMAQSLMDTGQVTWLREDGFKFRPTRSNISWMVCDMVEKPAKVAALMAQWLVNGWCRETIFNLKLPMKKRYEEVSHNLAYIQAQLDEHGINAQIQARQLYHDREEVTVHVRRIWAAVGGRRDER [P0ADR6]")
4.81
>>> numericresult("MKYDTSELCDIYQEDVNVVEPLFSNFGGRASFGGQIITVKCFEDNGLLYDLLEQNGRGRVLVVDGGGSVRRALVDAELARLAVQNEWEGLVIYGAVRQVDDLEELDIGIQAMAAIPVGAAGEGIGESDVRVNFGGVTFFSGDHLYADNTGIILSEDPLDIE [P0A8R0]")
4.26

**Q:** Name the recorded total protein half-life in vivo for "MLDQVCQLARNAGDAIMQVYDGTKPMDVVSKADNSPVTAADIAAHTVIMDGLRTLTPDVPVLSEEDPPGWEVRQHWQRYWLVDPLDGTKEFIKRNGEFTVNIALIDHGKPILGVVYAPVMNVMYSAAEGKAWKEECGVRKQIQVRDARPPLVVISRSHADAELKEYLQQLGEHQTTSIGSSLKFCLVAEGQAQLYPRFGPTNIWDTAAGHAVAAAAGAHVHDWQGKPLDYTPRESFLNPGFRVSIY" .
**A:** 4.29

---

- protocolNotes: total protein half-life in vivo (active degradation + dilution); higher = more stable protein
- runConditions: E. coli NCM3722 delta-clpP; growth: N-lim chemostat; doubling time 6 h
measureName: total protein half-life in vivo (h)
Dear colleague, please return just the value in h, with no unit written.

>>> numericresult("MSQVSTEFIPTRIAILTVSNRRGEEDDTSGHYLRDSAQEAGHHVVDKAIVKENRYAIRAQVSAWIASDDVQVVLITGGTGLTEGDQAPEALLPLFDREVEGFGEVFRMLSFEEIGTSTLQSRAVAGVANKTLIFAMPGSTKACRTAWENIIAPQLDARTRPCNFHPHLKK [P0AEZ9]")
5.83
>>> numericresult("MSAKHPVIAVTGSSGAGTTTTSLAFRKIFAQLNLHAAEVEGDSFHRYTRPEMDMAIRKARDAGRHISYFGPEANDFGLLEQTFIEYGQSGKGKSRKYLHTYDEAVPWNQVPGTFTPWQPLPEPTDVLFYEGLHGGVVTPQHNVAQHVDLLVGVVPIVNLEWIQKLIRDTSERGHSREAVMDSVVRSMEDYINYITPQFSRTHLNFQRVPTVDTSNPFAAKGIPSLDESFVVIHFRNLEGIDFPWLLAMLQGSFISHINTLVVPGGKMGLAMELIMLPLVQRLMEGKKIE [P0AEX5]")
5.4

**Q:** Name the recorded total protein half-life in vivo for "MKQTVYIASPESQQIHVWNLNHEGALTLTQVVDVPGQVQPMVVSPDKRYLYVGVRPEFRVLAYRIAPDDGALTFAAESALPGSPTHISTDHQGQFVFVGSYNAGNVSVTRLEDGLPVGVVDVVEGLDGCHSANISPDNRTLWVPALKQDRICLFTVSDDGHLVAQDPAEVTTVEGAGPRHMVFHPNEQYAYCVNELNSSVDVWELKDPHGNIECVQTLDMMPENFSDTRWAADIHITPDGRHLYACDRTASLITVFSVSEDGSVLSKEGFQPTETQPRGFNVDHSGKYLIAAGQKSHHISVYEIVGEQGLLHEKGRYAVGQGPMWVVVNAH" .
**A:** 4.59
